Molecular target: Ubiquitin carboxyl-terminal hydrolase 8 (Homo sapiens) (UniProt P40818)
Sequence (P40818 whole entry, looked up): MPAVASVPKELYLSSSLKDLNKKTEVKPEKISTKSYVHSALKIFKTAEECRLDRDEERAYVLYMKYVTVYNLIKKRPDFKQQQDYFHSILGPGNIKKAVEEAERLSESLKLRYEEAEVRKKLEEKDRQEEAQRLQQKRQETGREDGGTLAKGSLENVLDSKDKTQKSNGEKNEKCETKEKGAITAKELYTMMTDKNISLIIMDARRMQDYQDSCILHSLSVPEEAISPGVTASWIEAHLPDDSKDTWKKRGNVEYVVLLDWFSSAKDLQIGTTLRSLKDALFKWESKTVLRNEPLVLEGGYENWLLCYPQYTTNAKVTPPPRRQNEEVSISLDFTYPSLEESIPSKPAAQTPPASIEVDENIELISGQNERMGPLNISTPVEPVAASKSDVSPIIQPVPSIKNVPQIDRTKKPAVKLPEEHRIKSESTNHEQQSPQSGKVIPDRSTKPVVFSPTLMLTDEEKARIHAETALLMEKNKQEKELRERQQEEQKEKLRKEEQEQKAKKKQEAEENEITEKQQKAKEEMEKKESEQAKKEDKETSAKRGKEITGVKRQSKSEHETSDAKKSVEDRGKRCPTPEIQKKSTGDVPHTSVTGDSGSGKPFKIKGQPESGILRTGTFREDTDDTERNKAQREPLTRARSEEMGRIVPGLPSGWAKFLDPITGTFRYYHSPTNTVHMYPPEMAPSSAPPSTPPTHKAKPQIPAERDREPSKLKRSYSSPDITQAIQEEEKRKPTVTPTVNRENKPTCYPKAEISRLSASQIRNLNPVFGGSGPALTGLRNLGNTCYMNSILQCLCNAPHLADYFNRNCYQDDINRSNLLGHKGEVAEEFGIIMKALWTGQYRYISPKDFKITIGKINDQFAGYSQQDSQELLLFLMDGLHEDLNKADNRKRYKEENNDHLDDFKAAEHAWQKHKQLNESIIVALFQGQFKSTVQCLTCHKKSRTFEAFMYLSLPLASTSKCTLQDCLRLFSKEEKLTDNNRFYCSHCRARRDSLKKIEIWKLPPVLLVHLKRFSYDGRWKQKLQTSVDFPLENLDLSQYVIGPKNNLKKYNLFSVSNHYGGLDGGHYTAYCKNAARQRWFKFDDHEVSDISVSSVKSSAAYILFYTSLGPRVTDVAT
Test: blocks human USP8 ubiquitin-rhodamine cleavage (AID 1645853)
Settings: purified USP8, Ub-rhodamine cleavage fluorescence, 30 min; at 20 µM; hits give high values
The whole screen tested about 47,000 compounds, of which about 2,000 (4.3%) were called active. Only a selection was taken, and actives are over-represented in it overall.
So basically: inhibition at 20% or higher? That is true. Lower than 20%? That is false.

Use the examples below as a reference point.
Query string: Exam item: decide whether the reported inhibition for COc1ccc(-c2noc(-c3ccc(N(C)Cc4ccco4)nn3)n2)cc1 is at least 20%.
Result string: true

Query string: Exam item: decide whether the reported inhibition for Cc1cccc(NC(=O)Cn2c(C)ccc(NC(=O)Nc3cccc(C)c3)c2=O)c1 is at least 20%.
Result string: true

Query string: Exam item: decide whether the reported inhibition for COc1cccc(CNC(=O)N2CCN(Cc3ccc4nccnc4c3)CC2)c1 is at least 20%.
Result string: false

Query string: Exam item: decide whether the reported inhibition for CCC(Cc1ccccc1)NS(=O)(=O)c1ccc2c(c1)NC(=O)CS2 (stereo unspecified) is at least 20%.
Result string: false

Query string: Exam item: decide whether the reported inhibition for CO\C=C(C(=O)OC)/C(=C\C=C\c1ccccc1)CO is at least 20%.
Result string: false

Query string: Exam item: decide whether the reported inhibition for COc1ccc(-c2noc(C3(c4ccccc4)CCOCC3)n2)cc1 is at least 20%.
Result string: false

Query string: Exam item: decide whether the reported inhibition for O=C(c1ccc(Cl)cc1)N1CCSc2cc(Cl)ccc21 is at least 20%.
Result string: false

Query string: Exam item: decide whether the reported inhibition for CC(=O)Nc1ccc(S(=O)(=O)NCc2cn3ccccc3n2)cc1 is at least 20%.
Result string: false

Query string: Exam item: decide whether the reported inhibition for COc1cccc(-c2cc(C(=O)N3CCN(c4ccc(N5CCOCC5)nn4)CC3)[nH]n2)c1 is at least 20%.
Result string: false

Query string: Exam item: decide whether the reported inhibition for Cc1ccc2cc(CNc3ccccc3)c(=O)n(CC(=O)Nc3ccccc3C)c2c1 is at least 20%.
Result string: true

Next:
Query string: Exam item: decide whether the reported inhibition for Cc1nc(C2CCCN2C(=O)c2ccc(OCC3CC3)nc2)no1 (stereo unspecified) is at least 20%.
Result string: false
